src = PubChem BioAssay (NCATS)

# PROTOCOL: Quantitative High-Throughput drug screen in 47 multiple myeloma cell lines against the NCATS MIPE library collection: XG1_PLB cell viability assay (AID 1919866); note: nearly all actives have a fitted effect of over 35% in size
# STATED CONDITIONS: CellTiter-Glo ATP, 48 h; series mostly up to 45.8 µM
# Description: PI: Beverly A. Mock Ph.D. Laboratory of Cancer Biology and Genetics, Center for Cancer Research, National Cancer Institute, National Institute of Health, Bethesda, Maryland […] 5; Detector; 425V; Luminescence; Viewlux PerkinElmer. […] 1. […] Briefly, the corresponding myeloma cell lines were screened in 1,536-well plates with 500 cells, 5-uL per well for inhibition of cell viability (assessed by measuring ATP levels with CellTiterGlo). […]
Records with an inconclusive call do not appear. Activity calls are given as the source filed them. Calls come from the whole dose curve; as a rule, active = well fitted cell-killing curve with a large enough effect; inconclusive = small, poorly fitted or top-dose-only effect, or effect the other way; inactive = no such curve, though single readings can be large or run the other way.
Allowed answers: T for active, F for inactive

- COMPOUND: "Cc1cc2c(C(C)C)c(O)c(O)c(C=O)c2c(O)c1-c1c(C)cc2c(C(C)C)c(O)c(O)c(C=O)c2c1O"
  CLASS: "T"

Could you check what this test reported for Cc1[nH]c(=O)c(C#N)cc1-c1ccc2nccn2c1 ? F

Could you check what this test reported for CCN(CC)CCCC(C)Nc1ccnc2cc(Cl)ccc12 (stereo not given) ? T

---

# PROTOCOL: qHTS of pediatric cancer cell lines to identify multiple opportunities for drug repurposing: Confirmatory screen for Rh41 cells (AID 1347123);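 note: 48 h compound exposure; nearly all actives have a fitted effect of over 60% in size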; note: potency is the fitted concentration of half-maximal effect
# STATED CONDITIONS: Rh41 rhabdomyosarcoma cells, viability/cytotoxicity qHTS; series mostly up to 45.9 µM
Inconclusive results are not listed. Active and inactive are the calls of the source. Calls come from the whole dose curve; as a rule, active = well fitted cell-killing curve with a large enough effect; inconclusive = small, poorly fitted or top-dose-only effect; inactive = no such curve, though single readings can be large or run the other way.
MEASURED ENDPOINT: Potency

Before answering, review these 5 worked examples.
- MOLECULE: "CN1CCN(CCCN2c3ccccc3Sc3ccc(C(F)(F)F)cc32)CC1"
  OBSERVED: "14.7 µM (active)"
- MOLECULE: "O=NN(CCCl)C(=O)NCCCl"
  OBSERVED: "inactive"
- MOLECULE: "COc1cc2nccc(Oc3ccc(NC(=O)NC4CC4)c(Cl)c3)c2cc1C(N)=O"
  OBSERVED: "5.85 µM (active)"
- MOLECULE: "CCC(C)n1ncn(-c2ccc(N3CCN(c4ccc(OC[C@H]5CO[C@](Cn6cncn6)(c6ccc(Cl)cc6Cl)O5)cc4)CC3)cc2)c1=O (stereo partly drawn)"
  OBSERVED: "11.7 µM (active)"
- MOLECULE: "Nc1nc2c(ncn2COCCO)c(=O)[nH]1"
  OBSERVED: "inactive"

Given CNCc1ccc(-c2[nH]c3cc(F)cc4c3c2CCNC4=O)cc1 , state its recorded Potency. 16.5 µM (active)

Given Cc1c(C)c2c(c(C)c1O)CCC(C)(COc1ccc(CC3SC(=O)NC3=O)cc1)O2 (stereo not drawn) , state its recorded Potency. inactive

Given COc1ccc(-c2ccc3c(N4CCOCC4)nc(N4C[C@@H](C)O[C@@H](C)C4)nc3n2)cc1CO , state its recorded Potency. 0.657 µM (active)

---

# PROTOCOL: qHTS of pediatric cancer cell lines to identify multiple opportunities for drug repurposing: Primary screen for U-2 OS cells (AID 1347096); note: nearly all actives have a fitted effect of over 50% in size
# STATED CONDITIONS: U-2 OS viability, CellTiter-Glo luminescence, 48 h; series mostly up to 46 µM
Records with an inconclusive call do not appear. The source made the active and inactive calls. Calls follow the shape of the dose curve; as a rule, active = well fitted cell-killing curve with a large enough effect; inconclusive = small, poorly fitted or top-dose-only effect; inactive = flat fitted curve, though single readings scatter.
Allowed answers: yes = active, no = inactive

- COMPOUND: "CCCC(CCC)C(=O)O"
  CLASS: "no"
- COMPOUND: "O=C(C=Cc1ccc(/C=C/C(=O)Nc2ccc(C3=NCCN3)cc2)cc1)Nc1ccc(C2=NCCN2)cc1"
  CLASS: "no"
- COMPOUND: "CCOc1cc(C=C2C(=O)N(c3ccccc3)N=C2C)cc(Cl)c1OCC(=O)OC"
  CLASS: "no"
- COMPOUND: "N[C@@H]1CONC1=O"
  CLASS: "no"
- COMPOUND: "O=c1[nH]cnc2[nH]ncc12"
  CLASS: "no"

Could you check what this test reported for Cc1cc2c(C(C)C)c(O)c(O)c(C=O)c2c(O)c1-c1c(C)cc2c(C(C)C)c(O)c(O)c(C=O)c2c1O ? no

Could you check what this test reported for CCC(C)n1ncn(-c2ccc(N3CCN(c4ccc(OC[C@H]5CO[C@](Cn6cncn6)(c6ccc(Cl)cc6Cl)O5)cc4)CC3)cc2)c1=O (stereo partly specified) ? no

Could you check what this test reported for Nc1ccc(S(=O)(=O)Nc2ccnn2-c2ccccc2)cc1 ? no

Could you check what this test reported for Cc1ccccc1C(C(=O)NC1CCCC1)N(C(=O)Cn1cnc2ccccc21)c1cccc(F)c1 (stereo unspecified) ? no

Could you check what this test reported for CNC[C@H](O)c1cccc(O)c1 ? no

Could you check what this test reported for C[C@]12CC[C@H](O)CC1=CC[C@@H]1[C@H]2CC[C@]2(C)C(c3cccnc3)=CC[C@H]12 ? no
